- PROTOCOL TEXT: Rat tissue distribution of 99mTc complexes of example ligands (Table 6)
- Format: in vivo, Sprague-Dawley Rats
- PROTOCOL CONDITIONS: 99mTc complex, Blood, 120 min
- Protocol: Rat Tissue Distribution Studies. The distribution and pharmacokinetics of selected ^99mTc-SAAC complexes were evaluated in normal male Sprague Dawley rats (180-200 grams) administered via the tail vein as a bolus injection (approximately 10 μCi/rat) in a constant volume of 0.1 ml. […] Tissue time-radioactivity levels expressed as percent injected dose per gram of tissue (% ID/g) was determined. […]
molecules and their reported Blood tissue distribution
Numeric only. Scale: % ID/g

// known answers, use as guide
INSERT INTO results (molecule, observed_measurement) VALUES
  ('N[C@@H](CCCCN(Cc1ccccn1)Cc1ccccn1)C(=O)O [DpK, [ε-{N,N-di(pyridyl-2-methyl)}α-lysine], reference compound]', 0.01),
  ('N[C@@H](CCCCN(Cc1nccn1CC(=O)O)Cc1nccn1CC(=O)O)C(=O)O (stereo in doubt)', 0.72),
  ('Cn1ccnc1CN(CCCC[C@H](N)C(=O)O)Cc1nccn1C', 0.03),
  ('Cn1ccnc1CN(CCCC[C@H](N)C(=O)O)CC(=O)O', 0.09),
  ('COC(Cn1ccnc1CN(CCCC[C@H](N)C(=O)O)Cc1nccn1CC(OC)OC)OC (stereo in doubt)', 0.04);

I have this molecule here, `N[C@@H](CCCCN(Cc1nccs1)Cc1nccs1)C(=O)O` , and I need its recorded Blood tissue distribution.
0.76

Proceed to CCOCCn1ccnc1CN(CCCC[C@H](N)C(=O)O)Cc1nccn1CCOCC (stereo in doubt)
0.01

* * *

- PROTOCOL TEXT: Rat tissue distribution of 99mTc complexes of example ligands (Table 6)
- Format: in vivo, Sprague-Dawley Rats
- PROTOCOL CONDITIONS: 99mTc complex, GI, 120 min
READOUT: GI tissue distribution (% ID/g)
All answers are understood in % ID/g, so give the number only.

INSERT INTO assay_data (compound, observed_measurement) VALUES
  ('Cn1ccnc1CN(CCCC[C@H](N)C(=O)O)Cc1nccn1C [Compound 13]', 1.12),
  ('N[C@@H](CCCCN(Cc1nccn1CC(=O)O)Cc1nccn1CC(=O)O)C(=O)O (stereo in doubt) [Compound 2]', 1.22),
  ('CCOCCn1ccnc1CN(CCCC[C@H](N)C(=O)O)Cc1nccn1CCOCC (stereo in doubt) [Compound 4]', 2.96),
  ('N[C@@H](CCCCN(Cc1nccs1)Cc1nccs1)C(=O)O [DtK, (dithiazole)lysine]', 0.87),
  ('COC(Cn1ccnc1CN(CCCC[C@H](N)C(=O)O)Cc1nccn1CC(OC)OC)OC (stereo in doubt) [Compound 6]', 1.21);

# lookup: GI tissue distribution of N[C@@H](CCCCN(Cc1ccccn1)Cc1ccccn1)C(=O)O [DpK, [ε-{N,N-di(pyridyl-2-methyl)}α-lysine], reference compound]
2.73

Same question, Cn1ccnc1CN(CCCC[C@H](N)C(=O)O)CC(=O)O [Compound 18] this time
2.53

* * *

- PROTOCOL TEXT: Rat tissue distribution of 99mTc complexes of example ligands (Table 6)
- Assay type: in vivo, Sprague-Dawley Rats
- PROTOCOL CONDITIONS: 99mTc complex, Liver, 5 min
Binary classification by Liver tissue distribution, with 1 % ID/g as an inclusive lower bound for Criterion met; all other cases are Criterion not met.

Illustrative cases are given below, each with its answer.
INSERT INTO results (compound, label) VALUES
  ('Cn1ccnc1CN(CCCC[C@H](N)C(=O)O)CC(=O)O', 'Criterion not met'),
  ('Cn1ccnc1CN(CCCC[C@H](N)C(=O)O)Cc1nccn1C', 'Criterion not met'),
  ('N[C@@H](CCCCN(Cc1nccs1)Cc1nccs1)C(=O)O', 'Criterion met'),
  ('COC(Cn1ccnc1CN(CCCC[C@H](N)C(=O)O)Cc1nccn1CC(OC)OC)OC (stereo in doubt)', 'Criterion met'),
  ('N[C@@H](CCCCN(Cc1ccccn1)Cc1ccccn1)C(=O)O [DpK, [ε-{N,N-di(pyridyl-2-methyl)}α-lysine], reference compound]', 'Criterion met');

Kindly determine if Liver tissue distribution recorded for CCOCCn1ccnc1CN(CCCC[C@H](N)C(=O)O)Cc1nccn1CCOCC (stereo in doubt) is above or exactly 1 % ID/g.
Criterion met

Now consider N[C@@H](CCCCN(Cc1nccn1CC(=O)O)Cc1nccn1CC(=O)O)C(=O)O (stereo in doubt) and answer again.
Criterion not met

* * *

Quick list: Blood tissue distribution per entry.
- PROTOCOL TEXT: Rat tissue distribution of 99mTc complexes of example ligands (Table 6)
- Assay type: in vivo, Sprague-Dawley Rats
- PROTOCOL CONDITIONS: 99mTc complex, Blood, 60 min
A number alone suffices; assume % ID/g.

Previously resolved entries follow.
INSERT INTO measurements (compound, readout, observed_measurement) VALUES
  ('N[C@@H](CCCCN(Cc1nccn1CC(=O)O)Cc1nccn1CC(=O)O)C(=O)O (stereo in doubt)', 'Blood tissue distribution', 0.86),
  ('Cn1ccnc1CN(CCCC[C@H](N)C(=O)O)CC(=O)O', 'Blood tissue distribution', 0.22),
  ('N[C@@H](CCCCN(Cc1ccccn1)Cc1ccccn1)C(=O)O [DpK, [ε-{N,N-di(pyridyl-2-methyl)}α-lysine], reference compound]', 'Blood tissue distribution', 0.03);

# input compound: COC(Cn1ccnc1CN(CCCC[C@H](N)C(=O)O)Cc1nccn1CC(OC)OC)OC (stereo in doubt) ; wanted: its Blood tissue distribution
0.14

Queued: CCOCCn1ccnc1CN(CCCC[C@H](N)C(=O)O)Cc1nccn1CCOCC (stereo in doubt)
0.02

Next record, please: `N[C@@H](CCCCN(Cc1nccs1)Cc1nccs1)C(=O)O`
1.4

Field entry: `Cn1ccnc1CN(CCCC[C@H](N)C(=O)O)Cc1nccn1C`
0.11

* * *

- PROTOCOL TEXT: Rat tissue distribution of 99mTc complexes of example ligands (Table 6)
- Format: in vivo, Sprague-Dawley Rats
- PROTOCOL CONDITIONS: 99mTc complex, GI, 5 min
# if value of GI tissue distribution reaches 0.2 % ID/g, tag condition met; if it stays below, tag condition not met

Examples with answers:
INSERT INTO measurements (compound, label) VALUES
  ('Cn1ccnc1CN(CCCC[C@H](N)C(=O)O)Cc1nccn1C', 'condition not met'),
  ('N[C@@H](CCCCN(Cc1nccn1CC(=O)O)Cc1nccn1CC(=O)O)C(=O)O (stereo in doubt)', 'condition not met');

Determine whether this compound has GI tissue distribution no lower than 0.2 % ID/g: COC(Cn1ccnc1CN(CCCC[C@H](N)C(=O)O)Cc1nccn1CC(OC)OC)OC (stereo in doubt)
condition met

How about this compound: `Cn1ccnc1CN(CCCC[C@H](N)C(=O)O)CC(=O)O`
condition not met

Same lookup for `N[C@@H](CCCCN(Cc1nccs1)Cc1nccs1)C(=O)O` , please.
condition met

Similarly, CCOCCn1ccnc1CN(CCCC[C@H](N)C(=O)O)Cc1nccn1CCOCC (stereo in doubt) ?
condition met

Please give the result for N[C@@H](CCCCN(Cc1ccccn1)Cc1ccccn1)C(=O)O [DpK, [ε-{N,N-di(pyridyl-2-methyl)}α-lysine], reference compound] too.
condition met

* * *

- PROTOCOL TEXT: Rat tissue distribution of 99mTc complexes of example ligands (Table 6)
- Type: in vivo, Sprague-Dawley Rats
- PROTOCOL CONDITIONS: 99mTc complex, Sk. Muscle, 60 min
READOUT: Sk. Muscle tissue distribution (% ID/g)
Form entry: value (% ID/g) — number only.

Here are 3 compounds together with their reported answers.
INSERT INTO results (compound, observed_measurement) VALUES
  ('N[C@@H](CCCCN(Cc1ccccn1)Cc1ccccn1)C(=O)O [DpK, [ε-{N,N-di(pyridyl-2-methyl)}α-lysine], reference compound]', 0.03),
  ('N[C@@H](CCCCN(Cc1nccs1)Cc1nccs1)C(=O)O', 0.15),
  ('N[C@@H](CCCCN(Cc1nccn1CC(=O)O)Cc1nccn1CC(=O)O)C(=O)O (stereo in doubt)', 0.16);

May I ask what Sk. Muscle tissue distribution has been recorded for COC(Cn1ccnc1CN(CCCC[C@H](N)C(=O)O)Cc1nccn1CC(OC)OC)OC (stereo in doubt) ?
0.04

* * *

- PROTOCOL TEXT: Rat tissue distribution of 99mTc complexes of example ligands (Table 6)
- Assay type: in vivo, Sprague-Dawley Rats
- PROTOCOL CONDITIONS: 99mTc complex, Sk. Muscle, 5 min
READOUT: Sk. Muscle tissue distribution (% ID/g)
Please give a number only; it is taken to be in % ID/g.

Study these solved cases before continuing.
INSERT INTO measurements (compound, observed_measurement) VALUES
  ('COC(Cn1ccnc1CN(CCCC[C@H](N)C(=O)O)Cc1nccn1CC(OC)OC)OC (stereo in doubt)', 0.3),
  ('Cn1ccnc1CN(CCCC[C@H](N)C(=O)O)Cc1nccn1C', 0.22),
  ('N[C@@H](CCCCN(Cc1ccccn1)Cc1ccccn1)C(=O)O [DpK, [ε-{N,N-di(pyridyl-2-methyl)}α-lysine], reference compound]', 0.18),
  ('CCOCCn1ccnc1CN(CCCC[C@H](N)C(=O)O)Cc1nccn1CCOCC (stereo in doubt)', 0.13),
  ('N[C@@H](CCCCN(Cc1nccs1)Cc1nccs1)C(=O)O', 0.16);

Given the compound N[C@@H](CCCCN(Cc1nccn1CC(=O)O)Cc1nccn1CC(=O)O)C(=O)O (stereo in doubt) , what is its reported Sk. Muscle tissue distribution?
0.29

Next: `Cn1ccnc1CN(CCCC[C@H](N)C(=O)O)CC(=O)O`
0.21

Data provenance: patent US8562945B2
